All figures here come from patent US6737383B1.

# System: morningglory
# ASSAY SUMMARY: Test B pre/postemergence morningglory
# Format: in vivo, Ipomoea hederacea
# CONDITION CONTEXT: Rate 62 g/ha, Postemergence; scale of 0 to 10 where 0 is no effect and 10 is complete control
Below: a set of entries, each annotated with reported Morningglory plant response rating.
Please give the numeric answer without any surrounding text.

Example cases with answers are listed next.
[
  {
    "COMPOUND": "CC(C)N(C(=O)n1oc(=O)n(C(C)(C)C)c1=O)c1ccc(Cl)cc1 [Compound 118]",
    "SYSTEM NAME": "morningglory",
    "VALUE KIND": "Morningglory plant response rating",
    "QUANTITATIVE RESULT": 1
  },
  {
    "COMPOUND": "Cc1ccccc1-n1c(=O)on(C(=O)N(c2ccc(Cl)cc2Cl)C(C)C)c1=O [Compound 185]",
    "SYSTEM NAME": "morningglory",
    "VALUE KIND": "Morningglory plant response rating",
    "QUANTITATIVE RESULT": 1
  },
  {
    "COMPOUND": "CC(C)C(C)n1c(=O)on(C(=O)N(c2ccccc2)C(C)C)c1=O (stereo not drawn) [Compound 355]",
    "SYSTEM NAME": "morningglory",
    "VALUE KIND": "Morningglory plant response rating",
    "QUANTITATIVE RESULT": 2
  },
  {
    "COMPOUND": "CC(C)N(C(=O)n1oc(=O)n(C2CCCCC2)c1=O)c1ccc(F)cc1F [Compound 115]",
    "SYSTEM NAME": "morningglory",
    "VALUE KIND": "Morningglory plant response rating",
    "QUANTITATIVE RESULT": 3
  },
  {
    "COMPOUND": "CC(C)N(C(=O)n1oc(=O)n(CCl)c1=O)c1ccc(F)cc1 [Compound 376]",
    "SYSTEM NAME": "morningglory",
    "VALUE KIND": "Morningglory plant response rating",
    "QUANTITATIVE RESULT": 0
  }
]

Consider the additional compound presented here.
Incoming: Consider the compound Cc1nc(C)c(Cn2c(=O)on(C(=O)N(c3ccc(F)cc3)C(C)C)c2=O)s1 [Compound 232] and give its measured Morningglory plant response rating.
Outgoing: 3

---

Listing: Plant response rating, B. signalgrass of selected compounds
# System: surinam grass
# ASSAY SUMMARY: Test B pre/postemergence surinam grass
# Format: in vivo, Brachiaria decumbens
# CONDITION CONTEXT: Preemergence, Rate 500 g/ha; scale of 0 to 10 where 0 is no effect and 10 is complete control
Please reply with the number alone, leaving off any unit.

[
  {
    "COMPOUND": "C=C(C)CCn1c(=O)on(C(=O)N(c2ccc(F)cc2)C(C)C)c1=O [Compound 199]",
    "SYSTEM NAME": "surinam grass",
    "QUANTITATIVE RESULT": 9
  },
  {
    "COMPOUND": "CC(C)N(C(=O)n1oc(=O)n(Cc2ccco2)c1=O)c1ccc(F)cc1F [Compound 208]",
    "SYSTEM NAME": "surinam grass",
    "QUANTITATIVE RESULT": 0
  },
  {
    "COMPOUND": "C=C(Cl)Cn1c(=O)on(C(=O)N(c2ccc(F)cc2F)C(C)C)c1=O [Compound 634]",
    "SYSTEM NAME": "surinam grass",
    "QUANTITATIVE RESULT": 10
  }
]

Incoming: Any idea what Plant response rating, B. signalgrass came out for CCc1cccc(C)c1-n1c(=O)on(C(=O)N(c2ccc(F)cc2)C(C)C)c1=O [Compound 201] on surinam grass?
Outgoing: 4

Incoming: // query: CC(C)N(C(=O)n1oc(=O)n(CC(C)(C)C)c1=O)c1ccc(F)cc1F [Compound 277]
Outgoing: 10

Incoming: Also need C#CC(C)n1c(=O)on(C(=O)N(c2ccc(Cl)cc2)C(C)C)c1=O (racemic) [Compound 658] , thanks.
Outgoing: 8
